A collection of compounds and their measured activation
# testedTarget: Trace amine-associated receptor 1 (Homo sapiens) (UniProt Q96RJ0)
# Sequence (Q96RJ0 whole entry, looked up): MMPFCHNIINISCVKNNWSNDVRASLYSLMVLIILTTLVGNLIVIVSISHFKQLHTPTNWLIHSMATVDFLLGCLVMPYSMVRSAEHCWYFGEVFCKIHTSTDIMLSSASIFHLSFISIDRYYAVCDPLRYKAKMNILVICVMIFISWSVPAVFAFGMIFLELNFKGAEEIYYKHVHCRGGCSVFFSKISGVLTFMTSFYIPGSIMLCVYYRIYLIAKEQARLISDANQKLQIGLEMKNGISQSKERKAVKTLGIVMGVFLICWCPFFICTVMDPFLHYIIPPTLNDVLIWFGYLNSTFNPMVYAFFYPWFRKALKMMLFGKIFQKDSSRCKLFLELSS
# assayMethodText: activators of TAAR1 calcium mobilization – Fluo-8 calcium fluorescence, CHO RD-HGA16 cells, primary screen (AID 624467)
# assayConditions: CHO RD-HGA16 TAAR1, Fluo-8 calcium fluorescence; at 3 µM; active compounds read high; vehicle wells 0%, saturating PEA agonist 100%
Screen size: about 360,000 compounds; about 3,600 (1%) were called active. This is one part of a sample in which actives are shown more often than they occur.
Kindly provide the numeric value in % only, without the unit symbol.

Solved cases (5 shown):
>>> quantitativeresult("O=[N+]([O-])c1ccccc1N/N=C1\\CCc2ccccc21")
-0.37
>>> quantitativeresult("Cc1ccc(-c2nnc(SCC(=O)N/N=C/c3cccs3)n2-c2ccc(C)cc2)cc1")
2.56
>>> quantitativeresult("O=C(CN1CCc2ccccc21)NC(c1ccccc1)c1ccccc1")
-0.06
>>> quantitativeresult("COC(=O)c1[nH]c2cccc(C)c2c1NC(=O)CN1CCCc2ccccc21")
38.2
>>> quantitativeresult("CCCCn1c(N)c(N(CC(C)C)C(=O)C2CSC3(C)CCC(=O)N23)c(=O)[nH]c1=O (stereo unspecified)")
4.3

INPUT: Consider the compound shown here: O=C(COC(=O)c1cc(-c2cccs2)nn1-c1ccccc1)Nc1cc([N+](=O)[O-])ccc1Cl What is its recorded activation?
OUTPUT: 7.58

INPUT: Consider the compound shown here: CC(C)(C)Nc1c(N)c(=O)oc2ccccc12 What is its recorded activation?
OUTPUT: 9.39

* * *

# testedTarget: Trace amine-associated receptor 1 (Homo sapiens)
# assayMethodText: activators of TAAR1 calcium mobilization – Fluo-8 calcium fluorescence, CHO RD-HGA16 cells, primary screen (AID 624467)
# assayConditions: CHO RD-HGA16 TAAR1, Fluo-8 calcium fluorescence; at 3 µM; active compounds read high; vehicle wells 0%, saturating PEA agonist 100%
Hit rate of the full screen: of about 360,000 compounds, about 3,600 (1%) were called active. This is one part of a sample in which actives are shown more often than they occur.
endpointLabel: activation (%)
Kindly provide the numeric value in % only, without the unit symbol.

Solved cases (5 shown):
>>> quantitativeresult("C/C(=N\\NC(=O)CNC(=O)C(c1ccccc1)c1ccccc1)c1ccc(C)cc1")
-0.46
>>> quantitativeresult("O=S1(=O)c2c(cccc2N2CCCCC2)O[C@H](COCc2ccccc2)CN1C1CC1")
-0.15
>>> quantitativeresult("Cc1ccc2cc(C)c(N3CCC(C)CC3)nc2c1")
17.1
>>> quantitativeresult("CCC(C(=O)Nc1ccc(C(C)C)cc1)c1ccccc1 (centres undefined)")
95.2
>>> quantitativeresult("C#CCOc1ccc(/C=C2/C(=O)ON=C2C)cc1OCC")
26.1

Could you now look at the following compound, please?
INPUT: Consider the compound shown here: C=CC[C@]12C[C@@]3(O[C@H](c4ccc(C(F)(F)F)cc4)N=C3C[C@H](c3ccc(OC)cc3)[C@H]1C)N(C1CCN(Cc3ccccc3)CC1)C2=O What is its recorded activation?
OUTPUT: 0.44

* * *

A collection of compounds and their measured activation
# testedTarget: Trace amine-associated receptor 1 (Homo sapiens)
# assayMethodText: activators of TAAR1 calcium mobilization – Fluo-8 calcium fluorescence, CHO RD-HGA16 cells, primary screen (AID 624467)
# assayConditions: CHO RD-HGA16 TAAR1, Fluo-8 calcium fluorescence; at 3 µM; active compounds read high; vehicle wells 0%, saturating PEA agonist 100%
Out of some 360,000 compounds screened, about 3,600 (1%) were called active. Many of the other results were omitted from the sample, so actives are more common in it than they were.
Kindly provide the numeric value in % only, without the unit symbol.

Solved cases (10 shown):
>>> quantitativeresult("O=C(CN1CCSCC1)N/N=C/c1ccc(Cl)cc1")
12.7
>>> quantitativeresult("Cc1nn2c3cc(N4CCOCC4)ccc3nc2c2ccccc12")
2.7
>>> quantitativeresult("Cc1cc(=O)oc2c(C)c(OCC(=O)NCCc3ccc(S(N)(=O)=O)cc3)ccc12")
0.73
>>> quantitativeresult("Cc1ccc(N2C(=O)C(NC(=O)c3c(F)cccc3F)(C(F)(F)F)C3=C2CC(C)(C)CC3=O)cc1 (stereo not drawn)")
0.87
>>> quantitativeresult("CN1C(=O)C2CC(O)C(SC3CC4C(=O)N(C)C(=O)C4CC3O)CC2C1=O (stereo not drawn)")
-0.78
>>> quantitativeresult("CC(C)c1ccc(NC(=O)Cn2ncc3ccccc32)cc1")
1.09
>>> quantitativeresult("O=[N+]([O-])c1ccc2[nH]c3c(c2c1)CCCC3O (stereo not drawn)")
2.87
>>> quantitativeresult("COc1cc(/C=C2\\SC(=O)NC2=O)ccc1OCc1ccc(Cl)nc1")
0.37
>>> quantitativeresult("CCOC(=O)N(C)c1c(CC)nc2c(OCc3ccccc3C(=O)OC)cccn12")
0.97
>>> quantitativeresult("CC(C)(C)Oc1ncc(Br)c(OC(C)(C)C)n1")
1.63

INPUT: Consider the compound shown here: Nc1c(NCCc2ccccc2)c2ccccc2oc1=O What is its recorded activation?
OUTPUT: 88.1

INPUT: Consider the compound shown here: CCOC(=O)[C@]12CCCC=C1N(CCC1=CCCCC1)C(=O)[C@H](CC(=O)N1CCOCC1)C2 What is its recorded activation?
OUTPUT: -0.62

INPUT: Consider the compound shown here: COCCn1nnnc1C(c1cc2ccc(OC)cc2[nH]c1=O)N1CCc2ccccc2C1 (stereo not drawn) What is its recorded activation?
OUTPUT: 5.6
